# Target Of Assay: hNTS2 receptor (Homo sapiens, UniProt O95665)
# Construct: membranes prepared from them
# Sequence (O95665 whole entry): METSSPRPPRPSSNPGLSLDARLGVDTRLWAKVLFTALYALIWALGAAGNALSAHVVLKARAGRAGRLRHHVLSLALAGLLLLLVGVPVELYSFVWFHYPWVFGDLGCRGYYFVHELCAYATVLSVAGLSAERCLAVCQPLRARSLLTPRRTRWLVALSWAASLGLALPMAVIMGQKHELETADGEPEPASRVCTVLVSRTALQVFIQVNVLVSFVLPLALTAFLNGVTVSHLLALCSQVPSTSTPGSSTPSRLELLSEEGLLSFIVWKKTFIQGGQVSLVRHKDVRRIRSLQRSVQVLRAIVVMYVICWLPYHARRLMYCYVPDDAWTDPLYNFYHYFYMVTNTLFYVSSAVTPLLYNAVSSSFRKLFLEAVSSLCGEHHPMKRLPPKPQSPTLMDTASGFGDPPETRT
# Assay Method Text: Competitive radioligand binding assay on the hNTS2 receptor
# Condition Info: displacement of 125I-[Tyr3]-NT, membranes of 1321N1 cells expressing hNTS2; read-out: IC50 NTS2 (converted)
Where a SMILES comes first, the peptide text is derived from it. Bridges are numbered along the chain shown (N, C = ends). [ ]: non-standard residue; d: D form. Ala(cPr) = N[C@@H](CC1CC1)C(=O)O; AllylGly = C=CC[C@H](N)C(=O)O
Quantity Name: IC50 (µM)
Numeric only. Scale: µM

Qu. Please tell me: IC50 of NCCCC[C@@H]1NC(=O)[C@H](CCCCN)NC(=O)[C@@H](N)CC=CC[C@@H](C(=O)N[C@@H](Cc2ccc(O)cc2)C(=O)N[C@@H](CC2CC2)C(=O)O)NC1=O [compound 65, c[G(All)KKG(All)]YA(cyclopropyl)] (H-[AllylGly]KK[AllylGly]Y[Ala(cPr)]-OH; staple 1-4) , system hNTS2 receptor (Homo sapiens, UniProt O95665)?
Ans. 0.312

Qu. Request: CC(C)C[C@@H](NC(=O)[C@H](Cc1ccc(O)cc1)NC(=O)[C@@H]1CC=CC[C@H](N)C(=O)N[C@@H](CCCCN)C(=O)N[C@@H](CCCCN)C(=O)N1)C(=O)O [compound 38, c[G(All)KKG(All)]YL*] (H-[AllylGly]KK[AllylGly]Y[dL]-OH; staple 1-4)
Ans. 240
